- Test system: P. aeruginosa NB52023-CDK0006 (gyrA T83I, parC S87L)
- test-summary: microbe, parasite or virus in culture
- Type: cell-based
- experimental-parameters: Pseudomonas aeruginosa, 20 h, read-out: Antibacterial activity (MIC) NB52023-CDK0006
Where a name gives a salt, the structure may show the parent alone.

molecule | readout-unit | censor-symbol | MIC
Cc1c(N2CC[C@@H]([C@H](C)N)C2)c(F)cc2c(C#N)cc(=O)n(C3CC3)c12 [Example 27] | µg/mL | = | 2
Cc1c(N2CC[C@@H]([C@H](C)N)C2)ccc2ccc(=O)n(C3CC3)c12 [Example 76, trifluoroacetic acid salt] | µg/mL | = | 16
CC(=O)NCc1cc(=O)n(C2CC2)c2c(C)c(N3CC[C@@H]([C@H](C)N)C3)c(F)cc12 [Example 46] | µg/mL | > | 32
Cc1c(N2CC[C@@H]([C@H](C)N)C2)c(F)cc2c(-c3cn[nH]c3)cc(=O)n(C3CC3)c12 [Example 18] | µg/mL | = | 16
Cc1c(N2CC[C@@H]([C@H](C)N)C2)c(F)cc2c(C(=O)NO)cc(=O)n(C3CC3)c12 [Example 43] | µg/mL | > | 32

====

- Test system: P. aeruginosa NB52023 (efflux deficient K1542, ΔmexX ΔmexB)
- test-summary: microbe, parasite or virus in culture
- Format: cell-based
- experimental-parameters: Pseudomonas aeruginosa, 20 h, read-out: Antibacterial activity (MIC) NB52023
Structures can show the parent of a compound that is named as a salt.
Catalogue of compounds with associated MIC
measured-endpoint: MIC

compound | measured-endpoint | recorded-measurement
COc1cc(=O)n(C2CC2)c2c(C)c(N3CC[C@@H]([C@H](C)N)C3)ccc12 [Example 68] | MIC | > 32 µg/mL
Cc1c(N2CC[C@@H]([C@H](C)N)C2)c(F)cc2c(OCCCC(=O)O)cc(=O)n(C3CC3)c12 [Example 61] | MIC | > 32 µg/mL
Cc1c(N2CCC(F)(CN)C2)c(F)c(F)c2c(CN)cc(=O)n(C3CC3)c12 (stereo not shown) [Example 83, TFA salt] | MIC | 0.25 µg/mL
CNCc1cc(=O)n(C2CC2)c2c(C)c(N3CCC(CN)C3)c(F)cc12.O=C(O)C(F)(F)F (stereo not shown) [Example 88] | MIC | 2 µg/mL
Cc1c(N2CC[C@@H]([C@H](C)N)C2)c(F)cc2c(OCC(N)=O)cc(=O)n(C3CC3)c12 [Example 56] | MIC | 16 µg/mL
Cc1c(N2CC[C@@H]([C@H](C)N)C2)c(F)cc2c(/C=C/C(=O)O)cc(=O)n(C3CC3)c12 [Example 22] | MIC | > 32 µg/mL
Cc1c(N2CC[C@@H]([C@H](C)N)C2)c(F)cc2c(-c3nnn[nH]3)cc(=O)n(C3CC3)c12 [Example 39] | MIC | > 32 µg/mL
